All figures here come from ChEMBL document CHEMBL1201862.

System: UACC-62
assay.name: NCI tumour cell line growth inhibition, 48 h
Calls of active or inactive are those of the source. No stated cut-off is given here; in the data, active = GI50 up to about 1.1 µM and inactive = higher.
assay.readout: GI50

Worked examples, 8 molecules total:
{"molecule": "CCOC(=O)[C@@]12C(C)=CC(=O)O[C@]1(C)C1C(=O)NC(=O)C12 (some centres undefined)", "GI50": "17.4 µM (inactive)"}
{"molecule": "CCCCCCCCCCCCCCCc1nnc(S)[nH]1", "GI50": "97.9 µM (inactive)"}
{"molecule": "Oc1ccc2c(c1)OCC1c3ccccc3OC21 (centres undefined)", "GI50": "61.5 µM (inactive)"}
{"molecule": "COC(=O)/C=C(\\S/C(=N\\n1cc(C(=O)OC)c(C(=O)OC)c1-c1ccc(C)cc1)c1ccc(C)cc1)C(=O)OC", "GI50": "12 µM (inactive)"}
{"molecule": "CN[C@@H]1C[C@H]2O[C@@](C)([C@@H]1OC)n1c3ccccc3c3c4c(c5c6ccccc6n2c5c31)C(=O)N[C@@H]4O", "GI50": "0.0282 µM (active)"}
{"molecule": "Cc1cc(Cl)ccc1NC(=O)C(=O)Cc1nc2ccccc2o1", "GI50": "> 100 µM (inactive)"}
{"molecule": "CCOC(=O)c1ccc(/C(C)=N/NC(N)=S)cc1", "GI50": "> 100 µM (inactive)"}
{"molecule": "O=C(CC(O)(C(F)(F)Cl)C(F)(F)Cl)CC(O)(C(F)(F)Cl)C(F)(F)Cl", "GI50": "0.738 µM (active)"}

Give GI50 for C=C1C(=O)O[C@@H]2C(=O)[C@@H](C)[C@@H]3C=CC(=O)[C@@]3(C)[C@@H](OC(=O)/C(C)=C\C)[C@H]12 [MULTISTATIN] tested on UACC-62.
1.25 µM (inactive)
